experiment: Clearance in rat at 0.5 mg/kg, iv by LC-MS/MS method
Assay type: ADME, organism-based
particulars: in vivo
observable: clearance (mL/min/kg)

Some entries whose results are on file:
cpd smiles	clearance [mL/min/kg]
O=S(=O)(Nc1ccncn1)c1ccc2c(c1)OCCN2c1ccc(C(F)(F)F)cc1C1=CCNCC1	43.3
N#Cc1cc(C(F)(F)F)ccc1N1CCOc2cc(S(=O)(=O)Nc3ncns3)ccc21	10.7

A. N#Cc1cc(C(F)(F)F)ccc1N1CCOc2cc(S(=O)(=O)Nc3nccs3)ccc21
B. N#Cc1cc(C(F)(F)F)ccc1N1CCOc2cc(S(=O)(=O)Nc3ccncn3)ccc21
INPUT: Pick one: A or B . Which has the bigger clearance number? Give the label of your selection.
OUTPUT: A
(A: 5.5 mL/min/kg, B: 2.83 mL/min/kg)

I. N#Cc1cc(C(F)(F)F)ccc1N1CCOc2cc(S(=O)(=O)Nc3nccs3)c(F)cc21
II. O=S(=O)(Nc1ccncn1)c1ccc2c(-c3ccc(C(F)(F)F)cc3C3=CCNCC3)cccc2c1
INPUT: Returns the identifier with the smallest measured clearance among I and II . Give the label of your selection.
OUTPUT: I
(I: 10 mL/min/kg, II: 28.3 mL/min/kg)

Attribution: ChEMBL document CHEMBL4052683
